MIC by entry:
System: P. aeruginosa ATCC27853
TEST_METHOD_NOTES: Bacterial growth minimal inhibitory concentration (microdilution, cation-adjusted Mueller-Hinton Broth)
Format: cell-based
APPLIED_CONDITIONS: Pseudomonas aeruginosa, ATCC27853; quinolone-sensitive strain
EXPERIMENTAL_READOUT: MIC

compound="CN1CC(C#CC#Cc2ccc3c(c2)CN(CC[C@](C)(C(=O)NO)S(C)(=O)=O)C3=O)C1 [Example 8]" result="1 µg/mL"
compound="C[C@@](CCN1Cc2cc(C#CC#CC3CN(CCO)C3)sc2C1=O)(C(=O)NO)S(C)(=O)=O [Example 17]" result="1 µg/mL"
compound="C[C@@](CCN1Cc2cc(C#Cc3ccc(CCO)cc3)ccc2C1=O)(C(=O)NO)S(C)(=O)=O [Example 33]" result="2 µg/mL"
compound="CC(C)(O)CN1CC(C#CC#Cc2cc3c(s2)C(=O)N(CC[C@](C)(C(=O)NO)S(C)(=O)=O)C3)C1 [Example 25]" result="1 µg/mL"

* * *

System: E. coli ATCC25922
TEST_METHOD_NOTES: Bacterial growth minimal inhibitory concentration (microdilution, cation-adjusted Mueller-Hinton Broth)
Type: cell-based
APPLIED_CONDITIONS: Escherichia coli, ATCC25922; quinolone-sensitive strain
EXPERIMENTAL_READOUT: MIC (µg/mL)

structure=CN1CC(C#CC#Cc2cc3c(s2)C(=O)N(CC[C@](C)(C(=O)NO)S(C)(=O)=O)C3)C1 experimental_readout=MIC quantitative_result=0.25
structure=CC(C)N1CC(C#CC#Cc2cc3c(s2)C(=O)N(CC[C@](C)(C(=O)NO)S(C)(=O)=O)C3)C1 experimental_readout=MIC quantitative_result=0.25
structure=C[C@@](CCN1Cc2cc(C#CC#CC3CN(C4COC4)C3)sc2C1=O)(C(=O)NO)S(C)(=O)=O experimental_readout=MIC quantitative_result=0.5
structure=C[C@@](CCN1Cc2cc(C#CC#CC3CN(CC4(O)COC4)C3)sc2C1=O)(C(=O)NO)S(C)(=O)=O experimental_readout=MIC quantitative_result=1
structure=C[C@@](CCN1Cc2cc(C#CC#C[C@H]3C[C@]3(F)CO)ccc2C1=O)(C(=O)NO)S(C)(=O)=O experimental_readout=MIC quantitative_result=0.5
structure=C[C@@](CCN1Cc2cc(C#CC#CC3CN(CC4COC4)C3)sc2C1=O)(C(=O)NO)S(C)(=O)=O experimental_readout=MIC quantitative_result=0.25
structure=CN1C[C@@H](C#CC#Cc2cc3c(s2)C(=O)N(CC[C@](C)(C(=O)NO)S(C)(=O)=O)C3)[C@@H]1CO experimental_readout=MIC quantitative_result=0.5

* * *

MIC by entry:
Test system: P. aeruginosa ATCC27853
TEST_METHOD_NOTES: Bacterial growth minimal inhibitory concentration (microdilution, cation-adjusted Mueller-Hinton Broth)
Assay type: cell-based
APPLIED_CONDITIONS: Pseudomonas aeruginosa, ATCC27853; quinolone-sensitive strain
Description: Minimal Inhibitory Concentrations (MICs; mg/L) were determined in cation-adjusted Mueller-Hinton Broth by a microdilution method following the description given in “Methods for Dilution Antimicrobial Susceptibility Tests for Bacteria that grow Aerobically”, Approved standard, 7th ed., Clinical and Laboratory Standards Institute (CLSI) Document M7-A7, Wayne, Pa., USA (2006). All Example compounds were tested against several Gram-positive and Gram-negative bacteria. […]
EXPERIMENTAL_READOUT: MIC (µg/mL)

structure=C[C@@](CCN1Cc2cc(C#CC#CC3CN(CC4COC4)C3)sc2C1=O)(C(=O)NO)S(C)(=O)=O unit=µg/mL quantitative_result=2
structure=CNC1(C#CC#Cc2cc3c(s2)C(=O)N(CC[C@](C)(C(=O)NO)S(C)(=O)=O)C3)CC1 unit=µg/mL quantitative_result=1
structure=CN1[C@@H](CO)C[C@@H]1C#CC#Cc1cc2c(s1)C(=O)N(CC[C@](C)(C(=O)NO)S(C)(=O)=O)C2 unit=µg/mL quantitative_result=1
structure=C[C@@](CCN1Cc2cc(C#Cc3ccccc3)sc2C1=O)(C(=O)NO)S(C)(=O)=O unit=µg/mL quantitative_result=2
